# Target Or System: T1, human VEGF (hVEGF) (human, UniProt P15692 181-395)
# T1 construct: also called VEGF-A
# T1 sequence: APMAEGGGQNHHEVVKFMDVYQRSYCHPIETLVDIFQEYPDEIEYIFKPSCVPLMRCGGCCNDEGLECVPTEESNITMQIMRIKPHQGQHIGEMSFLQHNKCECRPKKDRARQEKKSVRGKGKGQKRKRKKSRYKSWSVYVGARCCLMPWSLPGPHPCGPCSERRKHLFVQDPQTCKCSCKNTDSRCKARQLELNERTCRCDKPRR
# Method Notes: SPR single-cycle;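 further: fab variants injected over hVEGF immobilized on a CM5 chip (Biacore T200), threefold dilution series from 0.02 to 50 nM, kinetics fitted with a 1:1 Langmuir model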

Binder | koff
G6.31 HC-P41R (Fab, name in Kabat numbering, V domains shown, Fab) VH: EVQLVESGGGLVQPGGSLRLSCAASGFTISDYWIHWVRQARGKGLEWVAGITPAGGYTYYADSVKGRFTISADTSKNTAYLQMNSLRAEDTAVYYCARFVFFLPYAMDYWGQGTLVTVSS VL: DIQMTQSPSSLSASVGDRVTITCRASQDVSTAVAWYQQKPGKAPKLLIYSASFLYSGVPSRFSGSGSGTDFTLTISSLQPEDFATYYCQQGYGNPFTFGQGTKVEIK | 0.000554 s⁻¹
G6.31 HC-T68K (Fab, name in Kabat numbering, V domains shown, Fab) VH: EVQLVESGGGLVQPGGSLRLSCAASGFTISDYWIHWVRQAPGKGLEWVAGITPAGGYTYYADSVKGRFKISADTSKNTAYLQMNSLRAEDTAVYYCARFVFFLPYAMDYWGQGTLVTVSS VL: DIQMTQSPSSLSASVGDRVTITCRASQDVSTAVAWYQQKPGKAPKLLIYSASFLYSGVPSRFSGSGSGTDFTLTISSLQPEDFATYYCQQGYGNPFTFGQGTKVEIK | 0.000513 s⁻¹
G6.31 LC-T31R (Fab, V domains shown, Fab) VH: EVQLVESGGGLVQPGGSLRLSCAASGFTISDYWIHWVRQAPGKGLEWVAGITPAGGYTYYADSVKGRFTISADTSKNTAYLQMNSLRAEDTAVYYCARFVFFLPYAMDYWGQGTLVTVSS VL: DIQMTQSPSSLSASVGDRVTITCRASQDVSRAVAWYQQKPGKAPKLLIYSASFLYSGVPSRFSGSGSGTDFTLTISSLQPEDFATYYCQQGYGNPFTFGQGTKVEIK | 0.000489 s⁻¹
